- Method: Clearance in BALB/c mouse at 10 mg/kg, po measured upto 24 hrs by LC-MS/MS analysis
- Format: ADME, organism-based
- Test settings: in vivo
Label label 1 when CL/F >= 200 mL/min/kg; otherwise label 0.

Solved entries:
NS(=O)(=O)c1nc2ccccc2s1	label 0
NS(=O)(=O)c1nc2ccc(F)cc2s1	label 0

Q: Item "NS(=O)(=O)c1nc2ccc(O)cc2s1" with CL/F of 200 mL/min/kg or above?
Result: label 1

Q: Item CCOc1ccc2nc(S(N)(=O)=O)sc2c1 [ETHOXZOLAMIDE] with CL/F of 200 mL/min/kg or above?
Result: label 1

====

- Method: Plasma protein binding in mouse
- Assay type: ADME, cell-free
I'd be grateful if you could share measured PPB for these entries.
Answers are plain numbers, in %.

Examples with their reported PPB follow.
NS(=O)(=O)c1nc2cc(F)ccc2s1	72
CCOc1ccc2nc(S(N)(=O)=O)sc2c1 [ETHOXZOLAMIDE]	74
COc1ccc2nc(S(N)(=O)=O)sc2c1	76

Okay, now this molecule:
"NS(=O)(=O)c1nc2ccc(F)cc2s1" has a reported PPB of 77

====

- Method: AUC (0 to 24 hrs) in BALB/c mouse at 10 mg/kg, po measured upto 24 hrs by LC-MS/MS analysis
- Format: ADME, organism-based
- Test settings: in vivo
Metric name: AUC(0-t) at 24 h (ng·h/mL)
One number for each entry, in ng·h/mL.

Examples with their reported AUC(0-t) at 24 h follow.
NS(=O)(=O)c1nc2ccccc2s1	671
COc1ccc2nc(S(N)(=O)=O)sc2c1	190

Okay, now this molecule:
"NS(=O)(=O)c1nc2ccc(F)cc2s1" has a reported AUC(0-t) at 24 h of 1000

====

- Method: Lipophilicity, log D of the compound in Octanol/PBS buffer at pH 7.4 by HPLC analysis
- Type: physicochemical
- Test settings: octanol/water
Metric name: logD
Give bare numbers.

Parameters: items (list). Returns: logD for each item.
1. NS(=O)(=O)c1nc2ccc(F)cc2s1
2. NS(=O)(=O)c1nc2ccc(O)cc2s1
3. CCOc1ccc2nc(S(N)(=O)=O)sc2c1 [ETHOXZOLAMIDE]
4. NS(=O)(=O)c1nc2cc(F)ccc2s1
5. COc1ccc2nc(S(N)(=O)=O)sc2c1
6. NS(=O)(=O)c1nc2ccc(OC(F)(F)F)cc2s1
7. NS(=O)(=O)c1nc2cc(F)c(F)cc2s1
8. NS(=O)(=O)c1nc2ccccc2s1

Result:
1: 1.14; 2: 0.81; 3: 1.85; 4: 1.17; 5: 1.28; 6: 2.77; 7: 1.32; 8: 0.97

"[2H]C([2H])([2H])C([2H])([2H])Oc1ccc2nc(S(N)(=O)=O)sc2c1" has a reported logD of 1.79

====

I'd be grateful if you could share measured remaining at 1 h for these entries.
- Method: Metabolic stability in mouse liver microsome assessed as parent compound remaining after 60 mins
- Type: ADME
- Test settings: liver microsomes, read-out: Stability
Give bare numbers, in %.

Parameters: items (list). Returns: remaining at 1 h for each item.
1. NS(=O)(=O)c1nc2ccc(OC(F)(F)F)cc2s1
2. NS(=O)(=O)c1nc2cc(F)ccc2s1
3. [2H]C([2H])([2H])C([2H])([2H])Oc1ccc2nc(S(N)(=O)=O)sc2c1
4. NS(=O)(=O)c1nc2cc(F)c(F)cc2s1
5. COc1ccc2nc(S(N)(=O)=O)sc2c1
6. CCOc1ccc2nc(S(N)(=O)=O)sc2c1 [ETHOXZOLAMIDE]
7. NS(=O)(=O)c1nc2ccc(F)cc2s1

Result:
[100, 100, 57, 97, 93, 19, 100]

src = ChEMBL document CHEMBL6127030
